The entries below are paired with their reported combination Emax.
system: MPP-89 (Mesothelioma); assay: combination Emax (second highest fraction inhibited in the dose matrix, 72 h); higher = more inhibition; extreme values may be limits of the assay
REPORTED_PROPERTY: combination Emax

MOLECULE	REPORTED_PROPERTY	RESULT
O=C(c1cc(Cc2n[nH]c(=O)c3ccccc23)ccc1F)N1CCN(C(=O)C2CC2)CC1 [Olaparib] + CC1(C)CCC(CN2CCN(c3ccc(C(=O)NS(=O)(=O)c4ccc(NCC5CCOCC5)c([N+](=O)[O-])c4)c(Oc4cnc5[nH]ccc5c4)c3)CC2)=C(c2ccc(Cl)cc2)C1 [Venetoclax] (first compound max 10 µM, 7x7, partner max 1 µM)	combination Emax	0.0498
O=C(c1cc(Cc2n[nH]c(=O)c3ccccc23)ccc1F)N1CCN(C(=O)C2CC2)CC1 [Olaparib] + CN(CC[C@H](CSC1=CC=CC=C1)NC2=C(C=C(C=C2)S(=O)(=O)NC(=O)C3=CC=C(C=C3)N4CCC(CC4)[C@H](C5=CC=CC=C5C6=CC=C(C=C6)Cl)O)S(=O)(=O)C(F)(F)F)CCO [AZD4320] (first compound max 10 µM, 7x7, partner max 1 µM)	combination Emax	0.138
CCc1c2c(nc3ccc(O)cc13)-c1cc3c(c(=O)n1C2)COC(=O)[C@]3(O)CC [SN-38] + O=C(c1cc(Cc2n[nH]c(=O)c3ccccc23)ccc1F)N1CCN(C(=O)C2CC2)CC1 [Olaparib] (first compound max 0.3 µM, 7x7, partner max 10 µM)	combination Emax	0.646
Cc1cc2ncnn2cc1Nc1ncc2c(n1)n(C1CCOCC1)c(=O)n2C [AZD7648] + O=C(c1cc(Cc2n[nH]c(=O)c3ccccc23)ccc1F)N1CCN(C(=O)C2CC2)CC1 [Olaparib] (first compound max 10 µM, 7x7, partner max 10 µM)	combination Emax	0.28
CC(=O)c1c(C)c2cnc(Nc3ccc(N4CCNCC4)cn3)nc2n(C2CCCC2)c1=O [Palbociclib] + Cn1cnc2c(F)c(Nc3ccc(Br)cc3Cl)c(C(=O)NOCCO)cc21 [Selumetinib] (first compound max 10 µM, 7x7, partner max 10 µM)	combination Emax	0.14
Cn1cnc2c(F)c(Nc3ccc(Br)cc3Cl)c(C(=O)NOCCO)cc21 [Selumetinib] + C[C@@H]1COCCN1C2=NC(=NC(=C2)C3(CC3)[S@](=N)(=O)C)C4=C5C=CNC5=NC=C4 [AZD6738] (first compound max 10 µM, 7x7, partner max 10 µM)	combination Emax	0.329
CN(CCO)CC[C@H](CSc1ccccc1)Nc1ccc(S(=O)(=O)NC(=O)c2ccc(N3CCC([C@@H](O)c4ccccc4-c4ccc(Cl)cc4)CC3)cc2)cc1S(=O)(=O)C(F)(F)F [AZD4320] + Cc1cc2ncnn2cc1Nc1ncc2c(n1)n(C1CCOCC1)c(=O)n2C [AZD7648] (first compound max 1 µM, 7x7, partner max 10 µM)	combination Emax	0.281

###

tested on: SNU-16 (Gastric Carcinoma); test: Bliss excess, mean over the matrix (fraction); higher = more synergy;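 further: after 72 h of two-drug dosing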
Entries and their Bliss excess
REPORTED_PROPERTY: Bliss excess

COMPOUND	REPORTED_PROPERTY	NUMERIC_RESULT
Cc1c2c(nn1C)CSCc1cc(n(C)n1)CSc1cc(c3ccccc3c1)OCCCc1c(C(=O)O)n(C)c3c-2c(Cl)ccc13 [AZD5991] + C[C@@H](Nc1cc(F)cc(F)c1)c1cc(C(=O)N(C)C)cc2c(=O)cc(N3CCOCC3)oc12 [AZD8186] (first compound max 1 µM, 7x7, partner max 3 µM)	Bliss excess	0.0087
C=CCn1c(=O)c2cnc(Nc3ccc(N4CCN(C)CC4)cc3)nc2n1-c1cccc(C(C)(C)O)n1 [AZD1775] + C[C@@H]1COCCN1C2=NC(=NC(=C2)C3(CC3)[S@](=N)(=O)C)C4=C5C=CNC5=NC=C4 [AZD6738] (first compound max 1 µM, partner max 10 µM)	Bliss excess	-0.0002
C=CCn1c(=O)c2cnc(Nc3ccc(N4CCN(C)CC4)cc3)nc2n1-c1cccc(C(C)(C)O)n1 [AZD1775] + Nc1ccn([C@@H]2O[C@H](CO)[C@@H](O)C2(F)F)c(=O)n1 [Gemcitabine] (first compound max 1 µM, partner max 0.3 µM)	Bliss excess	-0.013
COc1cccc(OCCCN)c1-c1cc(Nc2cnc(C#N)cn2)n[nH]1 [Prexasertib] + O=C(c1cc(Cc2n[nH]c(=O)c3ccccc23)ccc1F)N1CCN(C(=O)C2CC2)CC1 [Olaparib] (first compound max 1 µM, 7x7, partner max 10 µM)	Bliss excess	-0.0417
C[C@@H](c1ccc2nccn2c1)n1nnc2ncc(-c3cnn(C)c3)nc21 [Savolitinib] + Cc1c2c(nn1C)CSCc1cc(n(C)n1)CSc1cc(c3ccccc3c1)OCCCc1c(C(=O)O)n(C)c3c-2c(Cl)ccc13 [AZD5991] (first compound max 1 µM, 7x7, partner max 1 µM)	Bliss excess	-0.047
C[C@@H]1COCCN1c1cc(C2([S@](C)(=N)=O)CC2)nc(-c2ccnc3[nH]ccc23)n1 [AZD6738] + Nc1ccn([C@@H]2O[C@H](CO)[C@@H](O)C2(F)F)c(=O)n1 [Gemcitabine] (first compound max 10 µM, 7x7, partner max 0.3 µM)	Bliss excess	0.0098
CN(CCO)CC[C@H](CSc1ccccc1)Nc1ccc(S(=O)(=O)NC(=O)c2ccc(N3CCC([C@@H](O)c4ccccc4-c4ccc(Cl)cc4)CC3)cc2)cc1S(=O)(=O)C(F)(F)F [AZD4320] + C[C@@H](Nc1cc(F)cc(F)c1)c1cc(C(=O)N(C)C)cc2c(=O)cc(N3CCOCC3)oc12 [AZD8186] (first compound max 1 µM, 7x7, partner max 3 µM)	Bliss excess	0.0286
CN(C)CCCOc1ccc(-c2ccc3ncc4c(c3c2)n(C2CCOCC2)c(=O)n4C)cn1 [AZD0156] + C=CCn1c(=O)c2cnc(Nc3ccc(N4CCN(C)CC4)cc3)nc2n1-c1cccc(C(C)(C)O)n1 [AZD1775] (first compound max 1 µM, partner max 1 µM)	Bliss excess	-0.0158
